I'd appreciate it if you could supply normalized RNA/DNA level without ligand (log10) values for the items below.
B1: library; a variant is named by its letters at N, in order (parent)
chain: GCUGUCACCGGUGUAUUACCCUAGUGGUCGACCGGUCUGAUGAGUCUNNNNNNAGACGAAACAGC

variants of: B1; assay: normalized RNA/DNA level without ligand (relative to sTRSVctl = 100) (log10 (% of sTRSVctl)); ligand: hypoxanthine (xanthine aptamer); higher = less ribozyme self-cleavage, higher mRNA level; settings: HEK293T, reporter: mCherry (pCS4076), ligand present: no
Respond numerically, and do not add a unit to the figure.

Problem: Look up normalized RNA/DNA level without ligand (log10) for this variant: `UGGUCU`
Result: 1.91

Problem: Can you check `CUUCUA` next?
Result: 1.85

Problem: Can you check `AUGUUC` next?
Result: 1.85

Problem: Can you check `CCUUAU` next?
Result: 1.93

Problem: Can you check `UGCGGA` next?
Result: 1.52

Problem: Can you check `CCACGG` next?
Result: 1.85

Problem: Can you check `GUAUGC` next?
Result: 1.46

Problem: Can you check `GAUCGC` next?
Result: 1.8

Problem: Can you check `GGCAUC` next?
Result: 1.91

Problem: Can you check `CAAGUA` next?
Result: 1.78

Problem: Can you check `AUGUCA` next?
Result: 1.74

Problem: Can you check `UACUGC` next?
Result: 1.85

Problem: Can you check `CUUACC` next?
Result: 1.91

Problem: Can you check `UGGCUC` next?
Result: 2

Problem: Can you check `GCAAAG` next?
Result: 1.5

Problem: Can you check `AAACGU` next?
Result: 1.63

Problem: Can you check `CUAACC` next?
Result: 1.83

Problem: Can you check `AGGCAC` next?
Result: 1.83

Problem: Can you check `CGGGAU` next?
Result: 1.61

Problem: Can you check `CCAAUA` next?
Result: 1.8

Problem: Can you check `CACGGU` next?
Result: 1.76

Problem: Can you check `UGUUGC` next?
Result: 1.87

Problem: Can you check `CGCGAC` next?
Result: 1.75

Problem: Can you check `CUCGAG` next?
Result: 1.6
